I'd be grateful if you could share measured Relative Fluorescence Units (RFU) for these entries.
- measured.target: T1, Eotaxin 3 (CCL26) (UniProt Q9Y258 24-94)
- T1 construct: Bought chemokine
- T1 sequence (looked up): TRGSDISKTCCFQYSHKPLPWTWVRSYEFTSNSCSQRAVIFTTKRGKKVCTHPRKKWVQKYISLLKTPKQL
- test.name: micro-array, phage-presented peptide on printed CK

In: Record request: Relative Fluorescence Units (RFU) value, item GNAMCK [Phage-Presented Peptide 8.1 (Ph-p8.1)]
Out: > 15000 RFU

In: Record request: Relative Fluorescence Units (RFU) value, item DYDYGAPC [Phage-Presented Peptide 30 (Ph-p30)]
Out: > 15000 RFU

In: Record request: Relative Fluorescence Units (RFU) value, item WVFGVHFCK [Phage-Presented Peptide 8.77 (Ph-p8.77)]
Out: > 15000 RFU

In: Record request: Relative Fluorescence Units (RFU) value, item DYDYG [Phage-Presented Peptide 31 (Ph-p31)]
Out: > 15000 RFU

In: Record request: Relative Fluorescence Units (RFU) value, item DYDY [Phage-Presented Peptide 32 (Ph-p32)]
Out: > 10000 RFU

In: Record request: Relative Fluorescence Units (RFU) value, item NAMCK [Phage-Presented Peptide 8.11 (Ph-p8.11)]
Out: > 10000 RFU
